Exercise: state measured solubility kinetic for each of the molecules provided.
# measurement conditions: buffer; pH 7.4; 200.0 µM

## Input Tell me its solubility kinetic given O=C(NCC(=O)N1CCN(c2ccccc2O)CC1)c1cccs1 as the entry.
## Output > 51.8 µg/mL

## Input Tell me its solubility kinetic given C[C@@H]1CC2(CCCC[N+]2(C)C)C[C@H]1C.[I-] as the entry.
## Output > 48.5 µg/mL

## Input Tell me its solubility kinetic given O=S(=O)(Nc1ccc(Cl)cn1)c1ccc(F)cc1 as the entry.
## Output > 43 µg/mL

## Input Tell me its solubility kinetic given O=C1CCCc2nc(N3CCN(C(=O)c4ccco4)CC3)ncc21 as the entry.
## Output > 49 µg/mL

## Input Tell me its solubility kinetic given O=C1c2ccccc2CN1C(CO)Cc1ccccc1 (stereo unspecified) as the entry.
## Output > 40.1 µg/mL

## Input Tell me its solubility kinetic given Cc1onc(-c2ccccc2)c1C(=O)N(C)CC(=O)Nc1ccc(F)c(F)c1F as the entry.
## Output > 60.5 µg/mL
